This collection of values is drawn from patent US20250051375A1.

Provide the reported half-life at 2 μM of each item.
Experiment: PBS Stability Assay
Format: physicochemical
Settings: buffer, pH 7.4, 2 μM, phosphate buffered saline pH 7.4; read-out: PBS T½
Give bare numbers, in h.

# example entries with known answers
{"compound": "COC(=O)N[C@H](C(=O)N[C@@H](Cc1ccc(C#Cc2cnc(N3CC4CCC(C3)N4C3COC3)nc2)cc1)[C@H](CN(Cc1c(F)cc(-c2ccn(C(F)F)n2)cc1F)NC(=O)[C@@H](NC(=O)OC)C(C)(C)C(F)(F)F)OC(=O)OCOC(=O)CC(C)(C)c1c(C)cc(C(=O)O)cc1OP(=O)(O)O)C(C)(C)C(F)(F)F [Example 2]", "half-life at 2 μM [h]": 6.52}
{"compound": "COC(=O)N[C@H](C(=O)N[C@@H](Cc1ccc(C#Cc2cnc(N3CC4CCC(C3)N4C3COC3)nc2)cc1)[C@H](CN(Cc1c(F)cc(-c2ccn(C(F)F)n2)cc1F)NC(=O)[C@@H](NC(=O)OC)C(C)(C)C(F)(F)F)OC(=O)CC(C)(C)c1c(CC(=O)N[C@@H](CC(=O)O)C(=O)O)cc(C)cc1OP(=O)(O)O)C(C)(C)C(F)(F)F [Example 23]", "half-life at 2 μM [h]": 11.7}

Request: Sample COC(=O)N[C@H](C(=O)N[C@@H](Cc1ccc(C#Cc2cnc(N3CC4CCC(C3)N4C3COC3)nc2)cc1)[C@H](CN(Cc1c(F)cc(-c2ccn(C(F)F)n2)cc1F)NC(=O)[C@@H](NC(=O)OC)C(C)(C)C(F)(F)F)OC(=O)OCOC(=O)CC(C)(C)c1c(CC(=O)O)cc(C)cc1OP(=O)(O)O)C(C)(C)C(F)(F)F [Example 20] — what was its half-life at 2 μM?
Response: 6.5

---

Tested on: HIV-1 IIIB strain
Experiment: MT-4 HIV Wild Type Virus Infection Assay (IIIB Virus)
Type: cell-based
Conditions: Human immunodeficiency virus 1, IIIB, MT4, 120 h, MT-4 cells acutely infected with HIV-1 IIIB, 5 day incubation, Cell-titer glo
Provide the reported EC50 of each item.
Answers are plain numbers, in nM.

# example entries with known answers
{"molecule": "COC(=O)N[C@H](C(=O)N[C@@H](Cc1ccc(C#Cc2cnc(N3CC4CCC(C3)N4C3COC3)nc2)cc1)[C@H](CN(Cc1c(F)cc(-c2ccn(C(F)F)n2)cc1F)NC(=O)[C@@H](NC(=O)OC)C(C)(C)C(F)(F)F)OC(=O)CC(C)(C)c1c(CC(=O)N2CCN(S(N)(=O)=O)CC2)cc(C)cc1OP(=O)(O)O)C(C)(C)C(F)(F)F", "endpoint value": 627}
{"molecule": "COC(=O)N[C@H](C(=O)N[C@@H](Cc1ccc(C#Cc2cnc(N3CC4CCC(C3)N4C3COC3)nc2)cc1)[C@H](CN(Cc1c(F)cc(-c2ccn(C(F)F)n2)cc1F)NC(=O)[C@@H](NC(=O)OC)C(C)(C)C(F)(F)F)OC(=O)CC(C)(C)c1c(CC(=O)N2CC(C(=O)O)CC(C(=O)O)C2)cc(C)cc1OP(=O)(O)O)C(C)(C)C(F)(F)F (stereo partly drawn)", "endpoint value": 205}

In the following, a different molecule is considered.
Request: Sample COC(=O)N[C@H](C(=O)N[C@@H](Cc1ccc(C#Cc2cnc(N3CC4CCC(C3)N4C3COC3)nc2)cc1)[C@H](CN(Cc1c(F)cc(-c2ccn(C(F)F)n2)cc1F)NC(=O)[C@@H](NC(=O)OC)C(C)(C)C(F)(F)F)OC(=O)CC(C)(C)c1c(CC(=O)NCCOP(=O)(O)O)cc(C)cc1OP(=O)(O)O)C(C)(C)C(F)(F)F — what was its EC50?
Response: 42.4

---

Provide the reported half-life at 2 μM of each item.
Assay: Intestinal S9 Assay (dog GI S9)
Type: in vitro ADME
Details: dog, 1.0 mg/mL S9 protein, TRIS pH 7.4, read-out: Dog GI S9 T½
Numbers only, in h.

# example entries with known answers
{"compound": "COC(=O)N[C@H](C(=O)N[C@@H](Cc1ccc(C#Cc2cnc(N3CC4CCC(C3)N4C3COC3)nc2)cc1)[C@H](CN(Cc1c(F)cc(-c2ccn(C(F)F)n2)cc1F)NC(=O)[C@@H](NC(=O)OC)C(C)(C)C(F)(F)F)OC(=O)CC(C)(C)c1c(CC(=O)N2CC[C@H](C(=O)O)C2)cc(C)cc1OP(=O)(O)O)C(C)(C)C(F)(F)F [Example 76]", "display unit": "h", "endpoint value": 4.41}
{"compound": "COC(=O)N[C@H](C(=O)N[C@@H](Cc1ccc(C#Cc2cnc(N3CC4CCC(C3)N4C3COC3)nc2)cc1)[C@H](CN(Cc1c(F)cc(-c2ccn(C(F)F)n2)cc1F)NC(=O)[C@@H](NC(=O)OC)C(C)(C)C(F)(F)F)OC(=O)CC(C)(C)c1c(CC(=O)NCC(=O)NS(C)(=O)=O)cc(C)cc1OP(=O)(O)O)C(C)(C)C(F)(F)F [Example 27]", "display unit": "h", "endpoint value": 1.82}

Request: Sample COC(=O)N[C@H](C(=O)N[C@@H](Cc1ccc(C#Cc2cnc(N3CC4CCC(C3)N4C3COC3)nc2)cc1)[C@H](CN(Cc1c(F)cc(-c2ccn(C(F)F)n2)cc1F)NC(=O)[C@@H](NC(=O)OC)C(C)(C)C(F)(F)F)OC(=O)CC(C)(C)c1c(CC(=O)N[C@@]2(C(=O)O)CCOC2)cc(C)cc1OP(=O)(O)O)C(C)(C)C(F)(F)F [Example 29] — what was its half-life at 2 μM?
Response: 0.822

---

Provide the reported PBS T½ of each item.
Assay: PBS Stability Assay
Assay type: physicochemical
Conditions: 2 μM, phosphate buffered saline pH 7.4
One number for each entry, in h.

# example entries with known answers
{"compound": "COC(=O)N[C@H](C(=O)N[C@@H](Cc1ccc(C#Cc2cnc(N3CC4CCC(C3)N4C3COC3)nc2)cc1)[C@H](CN(Cc1c(F)cc(-c2ccn(C(F)F)n2)cc1F)NC(=O)[C@@H](NC(=O)OC)C(C)(C)C(F)(F)F)OC(=O)O[C@H](C)OC(=O)CC(C)(C)c1c(CC(=O)O)cc(C)cc1OP(=O)(O)O)C(C)(C)C(F)(F)F", "value kind": "PBS T½", "endpoint value": 11.15}
{"compound": "COC(=O)N[C@H](C(=O)N[C@@H](Cc1ccc(C#Cc2cnc(N3CC4CCC(C3)N4C3COC3)nc2)cc1)[C@H](CN(Cc1c(F)cc(-c2ccn(C(F)F)n2)cc1F)NC(=O)[C@@H](NC(=O)OC)C(C)(C)C(F)(F)F)OC(=O)OCOC(=O)CC(C)(C)c1c(CC(=O)NCCS(=O)(=O)O)cc(C)cc1OP(=O)(O)O)C(C)(C)C(F)(F)F", "value kind": "PBS T½", "endpoint value": 13.2}
{"compound": "COC(=O)N[C@H](C(=O)N[C@@H](Cc1ccc(C#Cc2cnc(N3CC4CCC(C3)N4C3COC3)nc2)cc1)[C@H](CN(Cc1c(F)cc(-c2ccn(C(F)F)n2)cc1F)NC(=O)[C@@H](NC(=O)OC)C(C)(C)C(F)(F)F)OC(=O)CC(C)(C)c1c(CC(=O)NC(CCCC(=O)O)C(=O)O)cc(C)cc1OP(=O)(O)O)C(C)(C)C(F)(F)F (some centres unmarked)", "value kind": "PBS T½", "endpoint value": 6.025}
{"compound": "COC(=O)N[C@H](C(=O)N[C@@H](Cc1ccc(C#Cc2cnc(N3CC4CCC(C3)N4C3COC3)nc2)cc1)[C@H](CN(Cc1c(F)cc(-c2ccn(C(F)F)n2)cc1F)NC(=O)[C@@H](NC(=O)OC)C(C)(C)C(F)(F)F)OC(=O)CC(C)(C)c1c(CC(=O)NCCS(=O)(=O)O)cc(C)cc1OP(=O)(O)O)C(C)(C)C(F)(F)F", "value kind": "PBS T½", "endpoint value": 13.2}

In the following, a different compound is considered.
Request: Sample COC(=O)N[C@H](C(=O)N[C@@H](Cc1ccc(C#Cc2cnc(N3CC4CCC(C3)N4C3COC3)nc2)cc1)[C@H](CN(Cc1c(F)cc(-c2ccn(C(F)F)n2)cc1F)NC(=O)[C@@H](NC(=O)OC)C(C)(C)C(F)(F)F)OC(=O)CC(C)(C)c1c(CC(=O)NC/C(N)=N/O)cc(C)cc1OP(=O)(O)O)C(C)(C)C(F)(F)F — what was its PBS T½?
Response: 13.2

---

Molecular target: bovine intestinal alkaline phosphatase (Bos taurus (Bovine))
Sequence (P19111 20-506): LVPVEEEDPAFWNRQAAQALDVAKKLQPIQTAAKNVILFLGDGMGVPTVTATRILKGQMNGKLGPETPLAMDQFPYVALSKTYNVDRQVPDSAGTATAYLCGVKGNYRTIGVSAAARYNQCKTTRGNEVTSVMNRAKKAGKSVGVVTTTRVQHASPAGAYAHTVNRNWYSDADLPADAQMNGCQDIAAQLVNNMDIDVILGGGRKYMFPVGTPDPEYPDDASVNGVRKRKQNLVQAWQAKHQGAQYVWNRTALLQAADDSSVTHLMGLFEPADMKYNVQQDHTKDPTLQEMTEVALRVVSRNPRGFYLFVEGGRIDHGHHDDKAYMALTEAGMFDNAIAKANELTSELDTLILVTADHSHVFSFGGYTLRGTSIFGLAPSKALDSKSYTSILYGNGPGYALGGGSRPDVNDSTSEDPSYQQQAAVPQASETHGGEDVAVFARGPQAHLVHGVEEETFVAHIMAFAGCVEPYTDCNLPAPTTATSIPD
Experiment: BiALP: conversion by bovine intestinal alkaline phosphatase
Type: in vitro ADME
Settings: 2 μM substrate, 100 ng/mL iALP, Tris pH 7.8, 37° C., 60 minutes
Provide the reported [Compound] of each item.
Give bare numbers, in nM.

{"compound": "COC(=O)N[C@H](C(=O)N[C@@H](Cc1ccc(C#Cc2cnc(N3CC4CCC(C3)N4C3COC3)nc2)cc1)[C@H](CN(Cc1c(F)cc(-c2ccn(C(F)F)n2)cc1F)NC(=O)[C@@H](NC(=O)OC)C(C)(C)C(F)(F)F)OC(=O)CC(C)(C)c1c(CC(=O)Nc2ccc(S(=O)(=O)O)cc2)cc(C)cc1OP(=O)(O)O)C(C)(C)C(F)(F)F [Example 90]", "endpoint value": 1746}
{"compound": "COC(=O)N[C@H](C(=O)N[C@@H](Cc1ccc(C#Cc2cnc(N3CC4CCC(C3)N4C3COC3)nc2)cc1)[C@H](CN(Cc1c(F)cc(-c2ccn(C(F)F)n2)cc1F)NC(=O)[C@@H](NC(=O)OC)C(C)(C)C(F)(F)F)OC(=O)OCOC(=O)CC(C)(C)c1c(CC(=O)N2CCN(CC(=O)O)CC2)cc(C)cc1OP(=O)(O)O)C(C)(C)C(F)(F)F [Example 77]", "endpoint value": 2259}

Request: Form entry - test system: bovine intestinal alkaline phosphatase (Bos taurus (Bovine)); read-out: [Compound]; compound: COC(=O)N[C@H](C(=O)N[C@@H](Cc1ccc(C#Cc2cnc(N3CC4CCC(C3)N4C3COC3)nc2)cc1)[C@H](CN(Cc1c(F)cc(-c2ccn(C(F)F)n2)cc1F)NC(=O)[C@@H](NC(=O)OC)C(C)(C)C(F)(F)F)OC(=O)CC(C)(C)c1c(CC(=O)N2CC(C(=O)O)CC(C(=O)O)C2)cc(C)cc1OP(=O)(O)O)C(C)(C)C(F)(F)F (stereo partly drawn) [Example 67]
Response: 1747.2
